target or system: Human URAT1 (Homo sapiens, UniProt Q96S37)
Construct: The full-length hURAT1 cDNA was obtained from the vector pCMV6-XL5 and subcloned into the expression vector pCMV6-Neo
Sequence (Q96S37 whole entry): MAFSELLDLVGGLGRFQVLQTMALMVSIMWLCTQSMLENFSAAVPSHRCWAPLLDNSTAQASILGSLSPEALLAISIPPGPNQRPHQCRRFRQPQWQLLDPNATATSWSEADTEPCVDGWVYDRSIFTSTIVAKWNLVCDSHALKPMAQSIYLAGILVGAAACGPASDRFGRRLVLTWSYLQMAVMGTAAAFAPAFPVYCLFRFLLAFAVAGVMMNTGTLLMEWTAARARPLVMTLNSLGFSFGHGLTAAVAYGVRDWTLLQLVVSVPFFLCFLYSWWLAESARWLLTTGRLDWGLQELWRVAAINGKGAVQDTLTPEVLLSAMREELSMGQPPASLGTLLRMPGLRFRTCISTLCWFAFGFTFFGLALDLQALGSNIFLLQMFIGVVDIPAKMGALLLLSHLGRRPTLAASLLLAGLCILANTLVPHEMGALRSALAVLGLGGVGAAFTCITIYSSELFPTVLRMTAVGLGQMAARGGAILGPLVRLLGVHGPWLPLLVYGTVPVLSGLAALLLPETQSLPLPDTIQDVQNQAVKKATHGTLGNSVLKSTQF
protocol notes: URAT1 inhibition assay: [8-14C] urate uptake in hURAT1-expressing HEK293 cells
recorded conditions: uric acid uptake in hURAT1-HEK cells
metric: pIC50
Kindly note that pIC50 refers to -log10 of the concentration in mol/L and answer with the value alone.

Param readout= pIC50; system= Human URAT1 (Homo sapiens, UniProt Q96S37); entry= Cc1ccc(C(=O)C(=O)O)cc1OCc1c(C)cccc1C ; returns value. 5.89

The values you see were collected from patent US20140142185A1.
